Affinity increase for assorted binders
# measured-target: T1, AFP158/HLA-A*02:01 complex (human)
# T1 construct: flowed over the chip in SPR; also called AFP158 pro
# procedure-details: SPR, KD ratio to AS170036 VL1VH1;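 further: crude scFv captured on a sensor chip, peptide–HLA complex passed over at several concentrations, association then buffer dissociation, KD derived from on- and off-rates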

{"columns": ["binder", "Affinity increase (fold)"],
 "data": [
  ["LE32M (scFv, AS170036 VL1VH1 scFv mutein) scFv: QSALTQPRSVSGSPGQSVTISCAGTSSDVGSMNYVSWYQQHPGKAPKLMIYQVNKRASGVPDRFSGSKSGNTASLTISGLQAEDEADYYCASYRSSDHNIVFGGGTKLTVLGGGGSGGGGSGGGGSEVQLVESGGGLVQPGGSLRLSCAASGFTFSSYAMSWVRQAPGKGLEWVSTINSGTGSPYYADSVKGRFTISRDNSKNTLYLQMNSLRAEDTAVYYCAKNFFDGSWFLGPPAMDYWGQGTLVTVSSHHHHHH", 0.4],
  ["LD97I (scFv, AS170036 VL1VH1 scFv mutein) scFv: QSALTQPRSVSGSPGQSVTISCAGTSSDVGSENYVSWYQQHPGKAPKLMIYQVNKRASGVPDRFSGSKSGNTASLTISGLQAEDEADYYCASYRSSIHNIVFGGGTKLTVLGGGGSGGGGSGGGGSEVQLVESGGGLVQPGGSLRLSCAASGFTFSSYAMSWVRQAPGKGLEWVSTINSGTGSPYYADSVKGRFTISRDNSKNTLYLQMNSLRAEDTAVYYCAKNFFDGSWFLGPPAMDYWGQGTLVTVSSHHHHHH", 0.4],
  ["LD97K (scFv, AS170036 VL1VH1 scFv mutein) scFv: QSALTQPRSVSGSPGQSVTISCAGTSSDVGSENYVSWYQQHPGKAPKLMIYQVNKRASGVPDRFSGSKSGNTASLTISGLQAEDEADYYCASYRSSKHNIVFGGGTKLTVLGGGGSGGGGSGGGGSEVQLVESGGGLVQPGGSLRLSCAASGFTFSSYAMSWVRQAPGKGLEWVSTINSGTGSPYYADSVKGRFTISRDNSKNTLYLQMNSLRAEDTAVYYCAKNFFDGSWFLGPPAMDYWGQGTLVTVSSHHHHHH", 0.6],
  ["LE32W (scFv, AS170036 VL1VH1 scFv mutein; also called AS170036 VL1VH1-VLE32W) scFv: QSALTQPRSVSGSPGQSVTISCAGTSSDVGSWNYVSWYQQHPGKAPKLMIYQVNKRASGVPDRFSGSKSGNTASLTISGLQAEDEADYYCASYRSSDHNIVFGGGTKLTVLGGGGSGGGGSGGGGSEVQLVESGGGLVQPGGSLRLSCAASGFTFSSYAMSWVRQAPGKGLEWVSTINSGTGSPYYADSVKGRFTISRDNSKNTLYLQMNSLRAEDTAVYYCAKNFFDGSWFLGPPAMDYWGQGTLVTVSSHHHHHH", 2.4],
  ["LE32Q (scFv, AS170036 VL1VH1 scFv mutein) scFv: QSALTQPRSVSGSPGQSVTISCAGTSSDVGSQNYVSWYQQHPGKAPKLMIYQVNKRASGVPDRFSGSKSGNTASLTISGLQAEDEADYYCASYRSSDHNIVFGGGTKLTVLGGGGSGGGGSGGGGSEVQLVESGGGLVQPGGSLRLSCAASGFTFSSYAMSWVRQAPGKGLEWVSTINSGTGSPYYADSVKGRFTISRDNSKNTLYLQMNSLRAEDTAVYYCAKNFFDGSWFLGPPAMDYWGQGTLVTVSSHHHHHH", 0.4]
]}
